Listing of entries alongside the reported pIC50.
molecular target: truncated human beta-secretase (residues 1-458, His6-tagged at the C-terminus) (Homo sapiens, UniProt P56817); construct: truncated human beta-secretase (residues 1-458, His6-tagged at the C-terminus); His6 (C); made in house; host or cells: insect cells D. melanogaster S2 (baculovirus expression system (so in the source)); assay: BACE fluorescence quench assay; assay type: biochemical; settings: in vitro enzyme activity, BACE fluorescence assay, pH 4.5; read-out: IC50
Sequence (P56817 22-458): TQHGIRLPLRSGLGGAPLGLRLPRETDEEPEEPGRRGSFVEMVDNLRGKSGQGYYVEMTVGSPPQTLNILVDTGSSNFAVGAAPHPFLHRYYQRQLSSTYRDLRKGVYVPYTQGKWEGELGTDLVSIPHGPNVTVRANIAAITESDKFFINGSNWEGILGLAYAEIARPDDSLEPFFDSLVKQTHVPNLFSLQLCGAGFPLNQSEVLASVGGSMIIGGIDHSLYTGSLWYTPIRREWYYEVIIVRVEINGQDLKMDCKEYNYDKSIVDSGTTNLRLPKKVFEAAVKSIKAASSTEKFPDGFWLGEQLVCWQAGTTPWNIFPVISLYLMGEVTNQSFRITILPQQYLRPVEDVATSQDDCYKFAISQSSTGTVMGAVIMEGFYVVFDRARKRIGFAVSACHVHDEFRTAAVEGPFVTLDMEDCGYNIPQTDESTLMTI
pIC50: −log10 of the molar value.

[
  {
    "COMPOUND": "CN1OC2(CC3(CCN(c4ncccn4)CC3)Oc3ccc(-c4cccc(C#N)c4)cc32)N=C1N (stereo not drawn) [Compound 353]",
    "pIC50": "6.00 to 6.30"
  },
  {
    "COMPOUND": "CN1C(=O)[C@@]2(C[C@]3(CCCOC3)Oc3ccc(-c4cccc(Cl)n4)cc32)N=C1N [Compound 426]",
    "pIC50": "5.30 to 6.00"
  },
  {
    "COMPOUND": "CC(C)=C[C@H](CCO)[C@@H]1C[C@@]2(N=C(N)N(C)O2)c2cc(-c3cc(F)cc(F)c3F)ccc2O1 [Compound 441]",
    "pIC50": "5.00 to 5.30"
  },
  {
    "COMPOUND": "CN1C(=O)C2(CC3(CCCOC3)Oc3ccc(-c4cccc(C(F)(F)F)c4)cc32)N=C1N (stereo not drawn) [Compound 338]",
    "pIC50": "6.30 to 7.00"
  },
  {
    "COMPOUND": "COc1cccc2c1CCCC1(C2)CC2(N=C(N)N(C)O2)c2cc(Br)ccc2O1 (stereo not drawn) [Compound 373]",
    "pIC50": "6.00 to 6.30"
  },
  {
    "COMPOUND": "CN1C(=O)C2(CC(C3CCOC(C)(C)C3)Oc3ccc(-c4ccc(F)c(F)c4)cc32)N=C1N (stereo not drawn) [Compound 431]",
    "pIC50": "5.30 to 6.00"
  },
  {
    "COMPOUND": "CSc1cccc(-c2ccc3c(c2)[C@]2(C[C@@]4(CCCOC4)O3)N=C(N)N(C)C2=O)c1 [Compound 405]",
    "pIC50": "5.30 to 6.00"
  },
  {
    "COMPOUND": "CN1OC2(CC3(CCCC(c4ccccc4)C3)Oc3ccc(-c4cccc(C#N)c4)cc32)N=C1N (stereo not drawn) [Compound 415]",
    "pIC50": "5.30 to 6.00"
  },
  {
    "COMPOUND": "CCCOc1cccc(-c2ccc3c(c2)C2(CC4(CCCOC4)O3)N=C(N)N(C)O2)c1 (stereo not drawn) [Compound 126]",
    "pIC50": "5.00 to 5.30"
  },
  {
    "COMPOUND": "CN1C(=O)[C@@]2(C[C@@]3(CCCOC3)Oc3ccc(-c4cc(C#N)cc(C#N)c4)cc32)N=C1N [Compound 309]",
    "pIC50": "6.30 to 7.00"
  },
  {
    "COMPOUND": "COc1ccc(-c2ccc3c(c2)[C@]2(C[C@@]4(CCCOC4)O3)N=C(N)N(C)C2=O)cc1OC [Compound 458]",
    "pIC50": "4.30 to 5.00"
  },
  {
    "COMPOUND": "CN1OC2(CC(C3COc4ccccc4C3)Oc3ccc(-c4cccc(C#N)c4)cc32)N=C1N (stereo not drawn) [Compound 422]",
    "pIC50": "5.30 to 6.00"
  },
  {
    "COMPOUND": "CN1OC2(CC3(CCS(=O)(=O)CC3)Oc3ccc(-c4cccc(C#N)c4)cc32)N=C1N (stereo not drawn) [Compound 438]",
    "pIC50": "5.00 to 5.30"
  },
  {
    "COMPOUND": "Cc1ccc(C#N)cc1-c1ccc2c(c1)C1(CC(C3CCOC(C)(C)C3)O2)N=C(N)N(C)O1 (stereo not drawn) [Compound 292]",
    "pIC50": "6.30 to 7.00"
  },
  {
    "COMPOUND": "CN1C(=O)[C@@]2(C[C@]3(CCCOC3)Oc3ccc(-c4ccc5cn[nH]c5c4)cc32)N=C1N [Compound 433]",
    "pIC50": "5.00 to 5.30"
  }
]
